target: hUHRF1 (Homo sapiens, UniProt Q96T88, R649A); assay: MST with labeled recombinant mutant protein
Sequence (Q96T88 whole entry R649A): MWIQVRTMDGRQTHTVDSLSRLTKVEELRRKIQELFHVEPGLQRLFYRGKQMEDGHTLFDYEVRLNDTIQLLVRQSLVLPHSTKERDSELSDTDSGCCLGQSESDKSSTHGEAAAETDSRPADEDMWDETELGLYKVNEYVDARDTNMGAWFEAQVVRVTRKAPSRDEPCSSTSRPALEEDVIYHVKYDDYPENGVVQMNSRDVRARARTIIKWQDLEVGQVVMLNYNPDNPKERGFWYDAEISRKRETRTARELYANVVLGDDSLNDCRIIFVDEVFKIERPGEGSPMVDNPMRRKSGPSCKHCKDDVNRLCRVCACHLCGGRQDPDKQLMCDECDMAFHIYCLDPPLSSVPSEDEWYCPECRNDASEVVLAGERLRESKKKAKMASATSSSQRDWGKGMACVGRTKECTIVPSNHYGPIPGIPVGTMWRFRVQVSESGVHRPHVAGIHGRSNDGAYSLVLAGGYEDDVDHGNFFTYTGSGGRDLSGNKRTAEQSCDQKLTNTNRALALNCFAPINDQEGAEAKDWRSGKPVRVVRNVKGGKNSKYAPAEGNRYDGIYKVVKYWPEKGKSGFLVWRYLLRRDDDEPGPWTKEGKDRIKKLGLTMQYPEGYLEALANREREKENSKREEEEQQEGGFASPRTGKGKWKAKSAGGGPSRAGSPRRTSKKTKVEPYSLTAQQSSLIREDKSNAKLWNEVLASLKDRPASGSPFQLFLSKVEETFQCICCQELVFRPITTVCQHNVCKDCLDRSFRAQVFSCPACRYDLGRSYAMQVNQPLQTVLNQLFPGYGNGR
pKd: −log10 of the molar value.
READOUT: pKd

1. CCCCCCCCCCCCCCCC(=O)OC[C@H](COP(=O)(O)O[C@H]1[C@H](O)[C@@H](OP(=O)(O)O)[C@H](O)[C@@H](O)[C@H]1O)OC(=O)CCCCCCCCCCCCCCC
5.52
